system: YANK2; construct: gene STK32B; settings: concentration: 1 μM, replicates: in singlicate; n = 1;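 also: KINOMEscan kinase panel screen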
The reader will find reported %Inh values listed item by item below.
observation type: %Inh (%)

compound	units label	val
COc1cccc(NC(=O)NC2CCN(c3ccnc(Nc4ccc(F)cc4)n3)C2)c1 (stereo not shown)	%	0
Cc1cc(NCC(c2ccccc2)c2ccccc2)nc(NCc2ccc(C(F)(F)F)cc2)n1	%	0
C[C@@H]1CCCCN1c1cc(-c2ccc3c(N)n[nH]c3c2)nc(N)n1	%	0
CCn1c(-c2cccnc2O)nc2cnccc21	%	0
Cl.O=C(Nc1cccc(-c2nn3ncccc3c2-c2ccnc(Nc3cccnc3)n2)c1)c1c(F)cccc1F	%	10
Cl.c1ccc(-c2n[nH]cc2-c2ccnc(-c3ccc(CN4CCOCC4)cc3)c2)nc1	%	0
Cc1cccc(-c2nc(C)cc(Nc3ccncc3)n2)n1	%	0
COc1ccccc1CNC(=O)c1cc(C(=O)c2ccccc2C)c[nH]1	%	0
COc1ccc(Nc2nccc(NCCNC(=O)Nc3ccccc3F)n2)cc1	%	0
CC(C)(C)c1ccc(C(=O)Nc2cn3cc(-c4cccnc4)ccc3n2)cc1	%	0
Cc1ccc(NC(=O)Nc2cccc(Cl)c2)cc1-c1ccc(C(=O)Nc2ccncc2)cc1	%	0
Fc1cccc(COc2nnc(-c3ccc4c(c3)CCO4)o2)c1	%	0
COc1ccc(CNC(=O)NC2CCN(c3ccnc(Nc4cc(OC)c(OC)c(OC)c4)n3)C2)cc1 (stereo not shown)	%	0
Fc1cc(Cl)ccc1Nc1ccnc2cc(I)ccc12	%	11
Nc1nc(-c2nccs2)c(-c2ccnc3ccccc23)s1	%	3
O=C(Nc1ccc2c(c1)OCO2)NC1CCN(c2ccnc(Nc3ccc(F)cc3)n2)C1 (stereo not shown)	%	0
COc1cc(Nc2nccc(N3CCC(NC(=O)Nc4cc(C)ccc4C)C3)n2)cc(OC)c1OC (stereo not shown)	%	0
Cc1nnc(-c2ccc3occ(-c4ccc(S(C)=O)cc4)c3c2)[nH]1 (stereo not shown)	%	0
Cl.NC(=O)c1cccc(Nc2nccc(Nc3ccc(Oc4cccc(Cl)c4)c(Cl)c3)n2)c1	%	2
O=C(Nc1n[nH]c2nc(-c3nccs3)c(Br)cc12)C1CCCC1	%	0
Cc1c(Cn2ccn3c(=O)cc(N4CCOCC4)nc23)cccc1C(F)(F)F	%	1
COC(=O)c1c(-c2ccccc2)c2cc(OC)ccc2c(=O)n1Cc1ccccc1	%	4
Cc1cccc(-c2nc(Nc3ccc4[nH]ncc4c3)c3ccccc3n2)n1	%	0
Cc1cccc(-c2nc(Nc3ccncc3)c3ccccc3n2)n1	%	0
Clc1cc(Cl)cc(Nc2ccnc(Nc3cc(Cl)cc(Cl)c3)n2)c1	%	0
Cn1ccc2ncnc(Oc3ccc(Nc4nc5ccccc5[nH]4)cc3)c21	%	0
Cl.Oc1ccc(-c2nc(-c3ccccc3)[nH]c2-c2ccncc2)cc1	%	0
COc1ccc2nc(-c3cccc(C)n3)nc(Nc3ccncc3)c2c1	%	2
CS(=O)(=O)c1ccc(-c2c(-c3ncn[nH]3)sc(N3CCOCC3)c2C#N)cc1	%	0
CN(C)CCN(C)C(=O)c1cc(-c2ccncc2)c(-c2ccc(Cl)c(O)c2)o1.Cl.Cl	%	71
COc1cccc(-c2cc(-c3c[nH]nc3-c3ccccn3)ccn2)c1	%	0
Cc1ccc(NC(=O)Nc2cc(C(C)(C)C)nn2-c2ccccc2)cc1	%	5
CC1=C(C(=O)Nc2cc3cn[nH]c3cc2F)C(c2ccc(C(F)(F)F)cc2)CC(=O)N1 (stereo not shown)	%	0
Cc1cccc(-c2nc(Nc3cccc(C(N)=O)c3)c3ccccc3n2)n1	%	0
Cc1ccc(-c2cc(-c3c[nH]nc3-c3ccccn3)ccn2)cc1	%	0
O=C1NC(=O)C(N2CCc3ccccc32)=C1c1ccccc1Cl	%	16
Cc1c(O)cccc1Nc1ccnc2ccc(C(F)(F)F)cc12.Cl	%	10
